All figures here come from patent US10590129B2.

Target: c-Met (Homo sapiens)
Sequence (P08581 25-1390): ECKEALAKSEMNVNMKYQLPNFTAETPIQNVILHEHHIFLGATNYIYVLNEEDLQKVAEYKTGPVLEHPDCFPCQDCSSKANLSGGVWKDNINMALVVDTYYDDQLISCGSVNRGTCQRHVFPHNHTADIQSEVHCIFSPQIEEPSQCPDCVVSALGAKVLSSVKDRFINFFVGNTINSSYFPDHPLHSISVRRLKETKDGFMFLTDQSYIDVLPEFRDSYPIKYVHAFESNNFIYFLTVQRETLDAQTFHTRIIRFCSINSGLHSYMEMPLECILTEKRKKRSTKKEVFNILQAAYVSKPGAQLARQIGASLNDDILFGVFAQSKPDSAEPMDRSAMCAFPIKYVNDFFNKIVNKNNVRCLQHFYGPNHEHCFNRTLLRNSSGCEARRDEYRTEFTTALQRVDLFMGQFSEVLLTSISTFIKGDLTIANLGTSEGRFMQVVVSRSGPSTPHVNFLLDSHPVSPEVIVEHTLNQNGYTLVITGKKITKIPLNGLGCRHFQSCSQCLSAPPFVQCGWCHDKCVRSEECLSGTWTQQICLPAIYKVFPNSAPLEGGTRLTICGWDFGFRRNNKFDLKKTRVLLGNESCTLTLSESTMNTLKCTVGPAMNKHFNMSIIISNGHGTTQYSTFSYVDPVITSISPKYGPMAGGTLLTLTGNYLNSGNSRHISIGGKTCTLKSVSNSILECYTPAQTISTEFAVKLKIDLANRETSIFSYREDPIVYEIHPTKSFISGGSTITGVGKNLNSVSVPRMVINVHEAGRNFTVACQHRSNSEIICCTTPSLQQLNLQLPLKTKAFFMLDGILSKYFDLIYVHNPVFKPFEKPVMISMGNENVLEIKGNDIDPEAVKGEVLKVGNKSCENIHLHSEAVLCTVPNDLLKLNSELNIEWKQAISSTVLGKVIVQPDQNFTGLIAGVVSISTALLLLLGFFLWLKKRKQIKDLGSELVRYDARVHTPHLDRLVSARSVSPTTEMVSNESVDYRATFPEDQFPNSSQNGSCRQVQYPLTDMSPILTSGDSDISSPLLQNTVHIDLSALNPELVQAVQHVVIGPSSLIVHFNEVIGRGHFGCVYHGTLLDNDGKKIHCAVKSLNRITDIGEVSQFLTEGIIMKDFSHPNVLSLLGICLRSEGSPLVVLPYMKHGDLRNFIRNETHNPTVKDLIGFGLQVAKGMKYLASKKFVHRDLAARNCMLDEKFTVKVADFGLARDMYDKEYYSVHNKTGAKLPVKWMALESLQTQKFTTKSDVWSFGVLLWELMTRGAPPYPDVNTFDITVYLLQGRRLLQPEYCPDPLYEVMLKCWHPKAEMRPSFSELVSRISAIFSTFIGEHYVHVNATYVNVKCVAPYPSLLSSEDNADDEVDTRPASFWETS
Test: Inhibition of c-Met kinase phosphorylation in MKN-45 cells (cell based ELISA)
Set-up: endogenous in cells; host or cells: MKN-45
Settings: 1 h
Experimental: Inhibition of c-Met Kinase Phosphorylation in MKN-45 Cells: MKN45 cells are a prototype of “c-Met addicted” cells having constitutively activated c-Met kinase similar to that observed in sub-sects of gastric or hepatocellular cancer patients with dysregulated c-Met kinase activity. Inhibition of Met phosphorylation was determined using a cell based ELISA assay according to the following schedule: Day 1: MKN-45 cells were plated in 96-well plates in complete growth medium. […]
Readout type: IC50

{"Molecule": "CNC(=O)c1ccc(-c2ccc3nnn(Cc4ccc5ncccc5c4)c3n2)cc1F", "Readout type": "IC50", "Obs value": "50 to 150 nM"}
{"Molecule": "NC(=O)c1ccc(-c2ccc3nnn(Cc4cc5cccnc5cc4F)c3n2)cc1Cl", "Readout type": "IC50", "Obs value": "≤ 50 nM"}
{"Molecule": "NC(=O)c1ccc(-c2ccc3nnn(Cc4cc5cccnc5cc4F)c3n2)cc1F", "Readout type": "IC50", "Obs value": "≤ 50 nM"}
{"Molecule": "O=C(Nc1nc[nH]n1)c1ccc(-c2ccc3nnn(Cc4ccc5ncccc5c4)c3n2)cc1F", "Readout type": "IC50", "Obs value": "≤ 50 nM"}
{"Molecule": "NC(=O)c1ccc(-c2ccc3nnn(Cc4ccc5ncccc5c4)c3n2)cc1F", "Readout type": "IC50", "Obs value": "50 to 150 nM"}

* * *

Entries annotated with measured GI50
system: MKN-45 cells; experiment: Inhibition of MKN-45 proliferation (MTT); format: cell-based, human; details: Homo sapiens, MKN-45, MKN-45 proliferation

{"Molecule": "CCNC(=O)c1ccc(-c2ccc3nnn(Cc4ccc5ncccc5c4)c3n2)cc1Cl", "Study system": "MKN-45 cells", "GI50": "≤ 50 nM"}
{"Molecule": "NC(=O)c1ccc(-c2ccc3nnn(Cc4ccc5ncccc5c4)c3n2)cc1", "Study system": "MKN-45 cells", "GI50": "150 to 500 nM"}
{"Molecule": "NC(=O)c1c(F)cc(-c2ccc3nnn(Cc4ccc5ncccc5c4)c3n2)cc1F", "Study system": "MKN-45 cells", "GI50": "≤ 50 nM"}
{"Molecule": "NC(=O)c1ccc(-c2ccc3nnn(Cc4ccc5ncccc5c4)c3n2)cc1Cl", "Study system": "MKN-45 cells", "GI50": "≤ 50 nM"}
{"Molecule": "c1cnc2ccc(Cn3nnc4ccc(-c5ccc6cc[nH]c6c5)nc43)cc2c1", "Study system": "MKN-45 cells", "GI50": "< 1000 nM"}
{"Molecule": "C[C@@H](c1ccc2ncccc2c1)n1nnc2ccc(-c3ccc(C(N)=O)c(Cl)c3)nc21", "Study system": "MKN-45 cells", "GI50": "≤ 50 nM"}
{"Molecule": "CONC(=O)c1ccc(-c2ccc3nnn(Cc4ccc5ncccc5c4)c3n2)cc1F", "Study system": "MKN-45 cells", "GI50": "≤ 50 nM"}
{"Molecule": "CNC(=O)c1ccc(-c2ccc3nnn(Cc4ccc5ncccc5c4)c3n2)cc1F", "Study system": "MKN-45 cells", "GI50": "50 to 150 nM"}
{"Molecule": "CN(C)CCNC(=O)c1ccc(-c2ccc3nnn(Cc4ccc5ncccc5c4)c3n2)cc1F", "Study system": "MKN-45 cells", "GI50": "150 to 500 nM"}

* * *

tested on: MKN-45 cells; assay: Inhibition of MKN-45 proliferation (MTT); format: cell-based, human; details: Homo sapiens, MKN-45, MKN-45 proliferation
Where a name gives a salt, the structure may show the parent alone.

{"Compound": "CN1CCN(C(=O)c2ccc(-c3ccc4nnn(Cc5ccc6ncccc6c5)c4n3)cc2)CC1", "GI50": "< 1000 nM"}
{"Compound": "CN(C)CCNC(=O)c1ccc(-c2ccc3nnn(Cc4ccc5ncccc5c4)c3n2)cc1", "GI50": "50 to 150 nM"}
{"Compound": "c1cnc2ccc(Cn3nnc4ccc(-c5cnn([C@H]6CCNC6)c5)nc43)cc2c1 [Ex 175, hydrochloride]", "GI50": "150 to 500 nM"}
{"Compound": "c1cnc2ccc(Cn3nnc4ccc(-c5cn[nH]c5)nc43)cc2c1", "GI50": "50 to 150 nM"}
{"Compound": "OCCn1cc(-c2ccc3nnn(Cc4ccc5ncccc5c4)c3n2)cn1", "GI50": "50 to 150 nM"}
{"Compound": "FCCn1cc(-c2ccc3nnn(Cc4ccc5ncccc5c4)c3n2)cn1", "GI50": "≤ 50 nM"}
{"Compound": "C[C@H](c1ccc2ncccc2c1)n1nnc2ccc(-c3ccc(C(N)=O)c(Cl)c3)nc21", "GI50": "150 to 500 nM"}
{"Compound": "O=C(NCCN1CCCCC1)c1ccc(-c2ccc3nnn(Cc4ccc5ncccc5c4)c3n2)cc1", "GI50": "50 to 150 nM"}
{"Compound": "C=CCNC(=O)c1ccc(-c2ccc3nnn(Cc4ccc5ncccc5c4)c3n2)cc1F", "GI50": "≤ 50 nM"}
{"Compound": "Cc1nn(C)c2cc(-c3ccc4nnn(Cc5ccc6ncccc6c5)c4n3)ccc12", "GI50": "150 to 500 nM"}
{"Compound": "Cc1cc(-c2ccc3nnn(Cc4ccc5ncccc5c4)c3n2)ccc1C(N)=O", "GI50": "50 to 150 nM"}
{"Compound": "c1cnc2ccc(Cn3nnc4ccc(-n5ccnc5)nc43)cc2c1", "GI50": "150 to 500 nM"}
{"Compound": "O=C(c1ccc(-c2ccc3nnn(Cc4ccc5ncccc5c4)c3n2)cc1)N1CCN(CCO)CC1", "GI50": "150 to 500 nM"}
{"Compound": "C/C(=N/NC(N)=O)c1ccc2nnn(Cc3ccc4ncccc4c3)c2n1", "GI50": "≤ 50 nM"}
{"Compound": "NC(=O)c1ccc(-c2ccc3nnn(Cc4ccc5ncsc5c4)c3n2)cc1Cl", "GI50": "≤ 50 nM"}
{"Compound": "O=C(NCCN1CCCC1)c1ccc(-c2ccc3nnn(Cc4ccc5ncccc5c4)c3n2)cc1F", "GI50": "50 to 150 nM"}
{"Compound": "NC(=O)c1ccc(-c2ccc3nnn(Cc4cc5cccnc5cc4F)c3n2)cc1F", "GI50": "≤ 50 nM"}
{"Compound": "CC(c1ccc2ncccc2c1)n1nnc2ccc(-c3ccc(C(N)=O)c(Cl)c3)nc21 (racemic)", "GI50": "≤ 50 nM"}

* * *

# maps each entry to its melting point
Readout type: melting point

{"Compound": "O=C(NCc1ccco1)c1ccc(-c2ccc3nnn(Cc4ccc5ncccc5c4)c3n2)cc1F", "Obs value": "144 to 147 °C"}
{"Compound": "O=C(Nc1nc[nH]n1)c1ccc(-c2ccc3nnn(Cc4ccc5ncccc5c4)c3n2)cc1Cl", "Obs value": "286 to 288 °C"}
{"Compound": "Fc1ccccc1-c1ccc2nnn(Cc3ccc4ncccc4c3)c2n1", "Obs value": "164 to 166 °C"}
{"Compound": "Cc1csc(-c2ccc3nnn(Cc4ccc5ncccc5c4)c3n2)c1", "Obs value": "153 to 156 °C"}
{"Compound": "O=C(O)c1ccc(-c2ccc3nnn(Cc4ccc5ncccc5c4)c3n2)cc1", "Obs value": "245 to 247 °C"}
{"Compound": "c1cnc2ccc(Cn3nnc4ccc(-c5cnn(C6CCNCC6)c5)nc43)cc2c1", "Obs value": "188 to 191 °C"}
{"Compound": "OCCNc1ccc2nnn(Cc3ccc4ncccc4c3)c2n1", "Obs value": "184 to 186 °C"}
{"Compound": "O=C(NC1CCCC1)c1ccc(-c2ccc3nnn(Cc4ccc5ncccc5c4)c3n2)cc1F", "Obs value": "166 to 168 °C"}
{"Compound": "NC(=O)c1ccc(-c2ccc3nnn(Cc4ccc5ncccc5c4)c3n2)cc1F", "Obs value": "198 to 200 °C"}
{"Compound": "CCc1n[nH]c2cc(-c3ccc4nnn(Cc5ccc6ncccc6c5)c4n3)ccc12", "Obs value": "211 to 213 °C"}
{"Compound": "CN(C)c1cccc(-c2ccc3nnn(Cc4ccc5ncccc5c4)c3n2)c1", "Obs value": "124 to 126 °C"}
{"Compound": "OCc1ccc(-c2ccc3nnn(Cc4ccc5ncccc5c4)c3n2)cc1F", "Obs value": "202 to 204 °C"}
{"Compound": "CN(C)C(=O)CCNC(=O)c1ccc(-c2ccc3nnn(Cc4ccc5ncccc5c4)c3n2)cc1F", "Obs value": "163 to 165 °C"}
{"Compound": "O=C(NCCC(=O)N1CCCC1)c1ccc(-c2ccc3nnn(Cc4ccc5ncccc5c4)c3n2)cc1F", "Obs value": "151 to 153 °C"}
{"Compound": "CC(C)n1cc(-c2ccc3nnn(Cc4ccc5ncccc5c4)c3n2)cn1", "Obs value": "126 to 128 °C"}
{"Compound": "CC(c1ccc2ncccc2c1)n1nnc2ccc(-c3cnn(CCO)c3)nc21 (stereo not shown)", "Obs value": "188 to 191 °C"}
{"Compound": "O=C(NC1CCC1)c1ccc(-c2ccc3nnn(Cc4ccc5ncccc5c4)c3n2)cc1F", "Obs value": "171 to 174 °C"}
{"Compound": "COCCOc1ccc(-c2ccc3nnn(Cc4ccc5ncccc5c4)c3n2)cc1F", "Obs value": "122 to 124 °C"}
{"Compound": "c1cnc2ccc(Cn3nnc4ccc(-n5ccnc5)nc43)cc2c1", "Obs value": "227 to 230 °C"}
